Tested on: HepG2 cell
Assay: HepG2 cell cytotoxicity, ATP decrease
Format: cell-based
pEC50: −log10 of the molar value.
Measured property: pEC50

What pEC50 value was documented for this molecule, C[C@H](CCC(=O)O)[C@H]1CC[C@H]2[C@@H]3[C@@H](O)C[C@@H]4C[C@H](O)CC[C@]4(C)[C@H]3CC[C@]12C [UDCA, reference compound] ?
< 3.00

====

Examples of molecules with documented EC50 follow.
Biological target: PXR (Homo sapiens, UniProt O75469)
Sequence (O75469 whole entry, species assumed): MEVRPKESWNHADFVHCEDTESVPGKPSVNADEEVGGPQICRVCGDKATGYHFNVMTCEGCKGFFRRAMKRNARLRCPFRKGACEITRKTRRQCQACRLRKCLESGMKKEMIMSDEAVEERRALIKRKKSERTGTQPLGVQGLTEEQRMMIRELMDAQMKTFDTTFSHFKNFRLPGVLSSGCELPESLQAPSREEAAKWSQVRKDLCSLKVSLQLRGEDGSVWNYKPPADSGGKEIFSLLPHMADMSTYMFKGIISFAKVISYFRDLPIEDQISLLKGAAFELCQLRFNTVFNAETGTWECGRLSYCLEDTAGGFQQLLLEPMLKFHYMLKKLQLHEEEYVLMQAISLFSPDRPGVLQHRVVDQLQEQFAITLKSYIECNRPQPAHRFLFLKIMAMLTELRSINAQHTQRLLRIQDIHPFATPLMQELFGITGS
Experiment: PXR ligands competition assay (binding assay)
Structures can show the parent of a compound that is named as a salt.
// return numeric value only (unit: µM, not printed)

{"Molecule": "CC[C@H]1[C@@H](O)[C@@H]2[C@H](C[C@H](O)[C@]3(C)[C@@H]([C@H](C)CCCS(=O)(=O)[O-])CC[C@@H]23)[C@@]2(C)CC[C@@H](O)C[C@@H]12.[Na+] [Compound 3A, Sodium Salt]", "Numeric readout": 150}

Entry CCC1C(O)C2C3CCC(C(C)CC(C)OS(=O)(=O)O)C3(C)CCC2C2(C)CCC(O)CC12 (centres unmarked) [Compound 2A, Sodium Salt] : reported EC50 = ?
21
